The values you see were collected from patent US20230103444A1.

- Tested on: SW620 tumor organoids
- measurementDescription: Tumor organoid cytotoxicity (CellTiter-Glo 3D)
- testSettings: Homo sapiens, SW-620, read-out: Tumor Organoid Cytotoxicity IC50 (μM) SW620
Listing of recorded IC50 by entry.
Kindly answer with a numeric value in µM, unit omitted.

1) Cc1cc(Nc2ccc(NC(=O)Cc3c[nH]c4cc(Cl)ccc34)cc2)nc(N2CCCC2)n1 [Compound 6.18]	1.4
2) COc1cnc(N2CCCC2)nc1Nc1ccc(NC(=O)Cc2cccs2)cc1 [Compound 6.10]	22.6
3) Cc1cc(Nc2ccc(NC(=O)CC3C(=O)Nc4ccccc43)cc2)nc(N2CCCC2)n1 (stereo not shown) [Compound 6.30]	6

Query :: Return reported IC50; argument: Cc1cc(Nc2ccc(NC(=O)c3cn(C)c4ccccc34)cc2)nc(N2CCCC2)n1 [Compound 6.19]
Result :: 7.7

====

Listing of recorded IC50 by entry.
- Tested on: HCT116 tumor organoids
- measurementDescription: Tumor organoid cytotoxicity (CellTiter-Glo 3D)
- Assay type: cell-based, human
- testSettings: Homo sapiens, HCT-116, 72 h; Table 6; read-out: 3 D Cytotoxicity 72 hr IC50 (μM) HCT116
Kindly answer with a numeric value in µM, unit omitted.

1. Cc1cc(Nc2ccc(NC(=O)Cc3cccc4ccccc34)cc2)nc(N2CCCC2)n1	2.4
2. Cc1cc(Nc2ccc(NC(=O)Cc3cc(Br)cs3)cc2)nc(N2CCN(C)CC2)n1	7.6

Query :: Return reported IC50; argument: Cc1cc(Nc2ccc(NC(=O)c3c[nH]c4ccccc34)cc2)nc(N2CCCC2)n1
Result :: 3.7

====

Listing of recorded IC50 by entry.
- System: SW620 tumor organoids
- measurementDescription: Tumor organoid cytotoxicity (CellTiter-Glo 3D)
- testSettings: Homo sapiens, SW-620, read-out: Tumor Organoid Cytotoxicity IC50 (μM) SW620
Kindly answer with a numeric value in µM, unit omitted.

Below, each entry is followed by its recorded IC50 result.
1) Cc1cc(Nc2ccc(NC(=O)Cc3c[nH]c4ncccc34)cc2)nc(N2CCCC2)n1	2.1
2) Cc1cc(Nc2ccc(NC(=O)Cc3cc(Br)cs3)cc2)nc(N2CCCC2)n1	2.6
3) Cc1cc(Nc2ccc(NC(=O)Cc3cn(S(=O)(=O)c4ccc(C(F)(F)F)cc4)c4ccccc34)cc2)nc(N2CCCC2)n1	5.1
4) Cc1cc(Nc2ccc(NC(=O)Cc3cccs3)cc2)nc(N2CCOCC2)n1	16.4

Query :: Return reported IC50; argument: Cc1cc(Nc2ccc(NC(=O)Cc3cccs3)cc2)nc(N2CCCC2)n1
Result :: 4.6

Query :: Return reported IC50; argument: Cc1cc(Nc2ccc(NC(=O)Cc3c[nH]c4ccc(Br)cc34)cc2)nc(N2CCCC2)n1
Result :: 5.7

Query :: Return reported IC50; argument: Cc1cc(Nc2ccc(NC(=O)CCCc3c[nH]c4ccccc34)cc2)nc(N2CCCC2)n1
Result :: 12.7

Query :: Return reported IC50; argument: Cc1cc(Nc2ccc(NC(=O)Cc3c(C)[nH]c4ccccc34)cc2)nc(N2CCCC2)n1
Result :: 1.6

Query :: Return reported IC50; argument: Cc1nc(N2CCCC2)nc(Nc2ccc(N(C)C(=O)Cc3cccs3)cc2)c1F
Result :: 28.4

====

- measurementDescription: Aqueous solubility in PBS
- Format: physicochemical
- testSettings: aqueous with cosolvent or surfactant or cyclodextrin; 10% DMSO in PBS (pH 7.4)
- Method: The measurement of solubility in PBS was conducted in duplicate experiments. The consensus LogP (CLogP) values were obtained using the SwissADME web tools. [Daina et al., 2017]
experimentalReadout: solubility (µg/mL)
Kindly answer with a numeric value in µg/mL, unit omitted.

Query :: Return reported solubility; argument: Cc1cc(Nc2ccc(NC(=O)Cc3cccs3)cc2)nc(N2CCCC2)n1
Result :: 700

====

- Test system: HCT116 tumor organoids
- measurementDescription: Tumor organoid cytotoxicity (CellTiter-Glo 3D)
- Assay type: cell-based, human
- testSettings: Homo sapiens, HCT-116, 72 h; Table 6; read-out: 3 D Cytotoxicity 72 hr IC50 (μM) HCT116
experimentalReadout: IC50 (µM)
Kindly answer with a numeric value in µM, unit omitted.

Below, each entry is followed by its recorded IC50 result.
1) Cc1cc(Nc2ccc(NC(=O)Cc3ccccn3)cc2)nc(N2CCCC2)n1	20.9
2) Cc1cc(NCc2ccc(NC(=O)Cc3cc(Br)cs3)cc2)nc(N2CCCC2)n1	11.6
3) Cc1cc(Nc2ccc(NC(=O)Cn3ccnc3)cc2)nc(N2CCCC2)n1	26.2
4) Cc1cc(Nc2ccc(NC(=O)/C=C/c3c[nH]c4ccccc34)cc2)nc(N2CCCC2)n1	6.8
5) Cc1cc(Oc2ccc(NC(=O)c3c[nH]c4ccccc34)cc2)nc(N2CCCC2)n1	15.3

Query :: Return reported IC50; argument: Cc1cc(Nc2ccc(NC(=O)Cc3cc(Br)cs3)cc2)nc(N2CCNCC2)n1
Result :: 4.8

Query :: Return reported IC50; argument: Cc1cc(N2CCCC2)nc(NCc2ccc(NC(=O)Cc3cc(Br)cs3)cc2)n1
Result :: 21.3

Query :: Return reported IC50; argument: Cc1cc(N2CCN(C)CC2)nc(NCc2ccc(NC(=O)Cc3cc(Br)cs3)cc2)n1
Result :: 10.6

Query :: Return reported IC50; argument: Cc1cc(NCc2ccc(NC(=O)Cc3cc(Br)cs3)cc2)nc(N2CCCCC2)n1
Result :: 8.3

Query :: Return reported IC50; argument: O=C(Cc1cc(Br)cs1)Nc1ccc(Nc2cc(C(F)(F)F)nc(N3CCCC3)n2)cc1
Result :: 11.9

Query :: Return reported IC50; argument: Cc1cc(Nc2ccc(NC(=O)Cc3ccco3)cc2)nc(N2CCCC2)n1
Result :: 10.8

Query :: Return reported IC50; argument: Cc1cc(Nc2ccc(NC(=O)Cn3ccnc3)cc2)nc(N2CCCCC2)n1
Result :: 15.1

====

- measurementDescription: Mouse liver microsome stability
- testSettings: CD-1, mouse, liver microsomes, pH 7.4, Microsomal stability Mouse t1/2 (min), Table 6
Listing of recorded half-life at 10 μM by entry.
Express the reported value numerically, then name its unit.

Below, each entry is followed by its recorded half-life at 10 μM result.
1. Cc1cc(Nc2ccc(NC(=O)Cc3c[nH]c4ccccc34)cc2)nc(N2CCCC2)n1 [Compound 6.5]	1.17 h
2. Cc1cc(Nc2ccc(NC(=O)Cc3ccco3)cc2)nc(N2CCCC2)n1 [Compound 6.39]	1.17 h
3. Cc1cc(N2CCCC2)nc(NCc2ccc(NC(=O)Cc3cc(Br)cs3)cc2)n1 [Compound 6.41]	1.03 h
4. Cc1cc(NCc2ccc(NC(=O)Cc3cc(Br)cs3)cc2)nc(N2CCCC2)n1 [Compound 6.33]	1.27 h
5. Cc1cc(Nc2ccc(NC(=O)Cc3c(C)[nH]c4ccccc34)cc2)nc(N2CCCC2)n1 [Compound 6.21]	0.796 h
6. Cc1cc(Nc2ccc(NC(=O)Cc3cc(Br)cs3)cc2)nc(N2CCCC2)n1 [Compound 6.11]	0.954 h
7. Cc1cc(Nc2ccc(NC(=O)Cc3cccc4ccccc34)cc2)nc(N2CCCC2)n1 [Compound 6.16]	0.925 h

Query :: Return reported half-life at 10 μM; argument: Cc1cc(Nc2ccc(NC(=O)Cc3c[nH]c4cc(Cl)ccc34)cc2)nc(N2CCCC2)n1 [Compound 6.18]
Result :: 2.35 h

====

- Tested on: HCT116 tumor organoids
- measurementDescription: Tumor organoid cytotoxicity (CellTiter-Glo 3D)
- Format: cell-based, human
- testSettings: Table 6; read-out: 3 D Cytotoxicity 72 hr IC50 (μM) HCT116
experimentalReadout: IC50
Express the reported value numerically, then name its unit.

Query :: Return reported IC50; argument: O=C(Cc1cc(Br)cs1)Nc1ccc(CNc2cc(C(F)(F)F)nc(N3CCCC3)n2)cc1
Result :: 7.8 µM

====

- Tested on: SW620 tumor organoids
pIC50: −log10 of the molar value.
experimentalReadout: pIC50

Query :: Quick check: pIC50 on SW620 tumor organoids, item Cc1cc(Nc2ccc(NC(=O)Cn3cnc4ccccc43)cc2)nc(N2CCCC2)n1 [Compound 6.28] ?
Result :: < 4.52

====

- measurementDescription: Human microsomal stability
- Assay type: in vitro ADME
- testSettings: human microsomes, Table 6, read-out: Microsomal stability Human t1/2
experimentalReadout: half-life (h)
Kindly answer with a numeric value in h, unit omitted.

1) Cc1cc(Nc2ccc(NC(=O)Cc3cccc4ccccc34)cc2)nc(N2CCCC2)n1	0.992
2) Cc1cc(Nc2ccc(NC(=O)Cc3ccco3)cc2)nc(N2CCCC2)n1	1.48
3) Cc1cc(Nc2ccc(NC(=O)Cc3c[nH]c4cc(Cl)ccc34)cc2)nc(N2CCCC2)n1	1.47
4) Cc1cc(Nc2ccc(NC(=O)Cc3cc(Br)cs3)cc2)nc(N2CCCC2)n1	4.38

Query :: Return reported half-life; argument: Cc1cc(Nc2ccc(NC(=O)Cc3c(C)[nH]c4ccccc34)cc2)nc(N2CCCC2)n1
Result :: 0.73

Query :: Return reported half-life; argument: Cc1cc(NCc2ccc(NC(=O)Cc3cc(Br)cs3)cc2)nc(N2CCCC2)n1
Result :: 0.637

Query :: Return reported half-life; argument: Cc1cc(N2CCCC2)nc(NCc2ccc(NC(=O)Cc3cc(Br)cs3)cc2)n1
Result :: 2.86
